// reported IC50 for each item listed
Target: full-length beta-Catenin (Uniprot ID P35222) (Homo sapiens)
Construct: 10 nM full-length beta-Catenin (Uniprot ID P35222)
Sequence (P35222 whole entry): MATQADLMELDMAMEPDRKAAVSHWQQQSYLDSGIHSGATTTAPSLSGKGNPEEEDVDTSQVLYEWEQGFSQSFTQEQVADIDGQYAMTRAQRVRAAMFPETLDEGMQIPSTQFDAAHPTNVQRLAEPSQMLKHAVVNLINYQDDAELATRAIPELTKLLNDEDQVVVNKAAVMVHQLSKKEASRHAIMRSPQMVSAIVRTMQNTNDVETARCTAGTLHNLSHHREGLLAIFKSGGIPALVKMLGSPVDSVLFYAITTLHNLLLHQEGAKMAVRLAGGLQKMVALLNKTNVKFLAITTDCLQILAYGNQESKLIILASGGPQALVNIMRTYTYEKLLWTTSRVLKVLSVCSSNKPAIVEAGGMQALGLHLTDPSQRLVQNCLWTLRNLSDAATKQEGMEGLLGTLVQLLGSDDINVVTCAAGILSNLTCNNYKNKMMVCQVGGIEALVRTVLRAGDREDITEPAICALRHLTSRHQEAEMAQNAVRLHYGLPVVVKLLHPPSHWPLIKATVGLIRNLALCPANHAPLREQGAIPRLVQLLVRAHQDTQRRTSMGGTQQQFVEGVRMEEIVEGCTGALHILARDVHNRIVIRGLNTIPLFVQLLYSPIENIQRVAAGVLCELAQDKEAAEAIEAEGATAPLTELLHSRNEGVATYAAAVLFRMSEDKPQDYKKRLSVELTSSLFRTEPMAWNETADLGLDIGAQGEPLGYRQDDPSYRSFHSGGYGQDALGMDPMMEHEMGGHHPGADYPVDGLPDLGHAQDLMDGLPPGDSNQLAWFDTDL
Test: Fluorescence polarization IC50 (beta-catenin / 5FAM-TCF4 10-53 competition)
Type: binding
Conditions: fluorescence polarization; read-out: beta-Catenin FP IC50
Kindly provide the numeric value in µM only, without the unit symbol.

CC(=O)N1CCC[C@]12CC=CCCCC1(CCCC=CCCCOC(=O)N3CC[C@@](C(=O)N[C@@H](Cc4ccsc4)C(=O)N[C@@H](Cc4csc5ccccc45)C(=O)N[C@@H](CCC(=O)N4CCC(N5CCCCC5)CC4)C(N)=O)(C3)NC(=O)[C@H](CC(C)C)NC(=O)[C@H](Cc3ccccc3)NC(=O)[C@H](C)NC(=O)[C@H](C)NC(=O)[C@H](CN(CC(=O)O)CC(F)(F)F)NC(=O)[C@H](CC(=O)O)NC1=O)NC(=O)[C@H](CC(C)(C)C)NC(=O)[C@H](CC(=O)O)NC2=O (some centres unmarked) [I-1797] : 0.01
CC(=O)N1CCC[C@]12CC=CCCCC1(CCCC=CCCCOC(=O)N3CC[C@@](C(=O)N[C@@H](Cc4ccsc4)C(=O)N[C@@H](Cc4csc5ccccc45)C(=O)N[C@@H](CCC(N)=O)C(N)=O)(C3)NC(=O)[C@H](CC(N)=O)NC(=O)[C@H](Cc3ccccc3)NC(=O)[C@H](C)NC(=O)[C@H](C)NC(=O)[C@H](CC(N)=O)NC(=O)[C@H](CC(N)=O)NC1=O)NC(=O)[C@H](CC(C)(C)C)NC(=O)[C@H](CC(=O)O)NC2=O (some centres unmarked) : 0.18
CC(=O)N1CCC[C@]12CC=CCCCC1(CCCC=CCCCOC(=O)N3CC[C@@](C(=O)N[C@@H](Cc4ccsc4)C(=O)N[C@@H](Cc4csc5ccccc45)C(=O)N[C@@H](Cc4c[nH]cn4)C(=O)N[C@@H](CCCCN)C(N)=O)(C3)NC(=O)[C@H](CCC(N)=O)NC(=O)[C@H](Cc3ccccc3)NC(=O)[C@H](C)NC(=O)[C@H](C)NC(=O)[C@H](CC(=O)O)NC(=O)[C@H](CC(=O)O)NC1=O)NC(=O)[C@H](CC(C)(C)C)NC(=O)[C@H](CC(=O)O)NC2=O (some centres unmarked) [I-2230] : 0.008
CC(=O)N1CCC[C@]12CC=CCCCC1(CCCC=CCCCOC(=O)N3CC[C@@](C(=O)N[C@@H](Cc4ccsc4)C(=O)N[C@@H](Cc4csc5ccccc45)C(=O)N[C@@H](CCC(N)=O)C(N)=O)(C3)NC(=O)[C@H](CC(C)C)NC(=O)[C@H](Cc3ccccc3)NC(=O)[C@H](C)NC(=O)[C@H](C)NC(=O)[C@H](CN(CC(=O)O)CC(F)(F)F)NC(=O)[C@H](CC(=O)O)NC1=O)NC(=O)[C@H](CC(C)(C)C)NC(=O)[C@H](CC(=O)O)NC2=O (some centres unmarked) : 0.01

Now for the compound whose IC50 we want.
// returns reported IC50 for input CCCC[C@@H]1NC(=O)[C@H](CC(=O)O)NC(=O)[C@]2(CC=CCCCC3(CCCC=CCCCOC(=O)N4CC[C@@](C(=O)N[C@@H](Cc5ccsc5)C(=O)N[C@@H](Cc5csc6ccccc56)C(=O)N[C@@H](CCC(N)=O)C(N)=O)(C4)NC(=O)[C@H](CC(C)C)NC(=O)[C@H](Cc4ccccc4)NC(=O)[C@H](C)NC(=O)[C@H](C)NC(=O)[C@H](CN(CC(=O)O)CC(F)(F)F)NC(=O)[C@H](CC(=O)O)NC3=O)NC1=O)CCCN2C(C)=O (some centres unmarked)
0.008
